Tested on: L. lactis
PROTOCOL: Allelic recombination frequency, selective vs non-selective plates
Assay type: cell-based, Lactococcus lactis
STUDY_CONDITIONS: co-expressed with the RecT

MOLECULE	Editing efficiency with chimeric SSB
L1SSB C7:PaSSB (protein) MINNVVLVGRITRDPELRYTPQNQAVATFSLAVNRQFKNANGEREADFINCVIWRQQAENLANWAKKGALIGVTGRIQTRNYENQQGQRVYVTEVVADSFQMLESRSARDGMGGGASAGSYSAPSQSTNNTPRPQTNNNSATPNFGRDADPFGSSPMEIMEIFDDDIPF	completely recovered
L1SSB C8:PaSSB (protein) MINNVVLVGRITRDPELRYTPQNQAVATFSLAVNRQFKNANGEREADFINCVIWRQQAENLANWAKKGALIGVTGRIQTRNYENQQGQRVYVTEVVADSFQMLESRSARDGMGGGASAGSYSAPSQSTNNTPRPQTNNNSATPNFGRDADPFGSSPMEMESFDDDIPF	completely recovered
L1SSB C7:MsSSB (protein) MINNVVLVGRITRDPELRYTPQNQAVATFSLAVNRQFKNANGEREADFINCVIWRQQAENLANWAKKGALIGVTGRIQTRNYENQQGQRVYVTEVVADSFQMLESRSARDGMGGGASAGSYSAPSQSTNNTPRPQTNNNSATPNFGRDADPFGSSPMEIMEIADDEPPF	completely recovered
L1SSB C8:MsSSB (protein) MINNVVLVGRITRDPELRYTPQNQAVATFSLAVNRQFKNANGEREADFINCVIWRQQAENLANWAKKGALIGVTGRIQTRNYENQQGQRVYVTEVVADSFQMLESRSARDGMGGGASAGSYSAPSQSTNNTPRPQTNNNSATPNFGRDADPFGSSPMEMEGADDEPPF	completely recovered
